The reported measurements were obtained from paper PMC12325182.

target: IGF1R (Homo sapiens)
Sequence (P08069 31-1367): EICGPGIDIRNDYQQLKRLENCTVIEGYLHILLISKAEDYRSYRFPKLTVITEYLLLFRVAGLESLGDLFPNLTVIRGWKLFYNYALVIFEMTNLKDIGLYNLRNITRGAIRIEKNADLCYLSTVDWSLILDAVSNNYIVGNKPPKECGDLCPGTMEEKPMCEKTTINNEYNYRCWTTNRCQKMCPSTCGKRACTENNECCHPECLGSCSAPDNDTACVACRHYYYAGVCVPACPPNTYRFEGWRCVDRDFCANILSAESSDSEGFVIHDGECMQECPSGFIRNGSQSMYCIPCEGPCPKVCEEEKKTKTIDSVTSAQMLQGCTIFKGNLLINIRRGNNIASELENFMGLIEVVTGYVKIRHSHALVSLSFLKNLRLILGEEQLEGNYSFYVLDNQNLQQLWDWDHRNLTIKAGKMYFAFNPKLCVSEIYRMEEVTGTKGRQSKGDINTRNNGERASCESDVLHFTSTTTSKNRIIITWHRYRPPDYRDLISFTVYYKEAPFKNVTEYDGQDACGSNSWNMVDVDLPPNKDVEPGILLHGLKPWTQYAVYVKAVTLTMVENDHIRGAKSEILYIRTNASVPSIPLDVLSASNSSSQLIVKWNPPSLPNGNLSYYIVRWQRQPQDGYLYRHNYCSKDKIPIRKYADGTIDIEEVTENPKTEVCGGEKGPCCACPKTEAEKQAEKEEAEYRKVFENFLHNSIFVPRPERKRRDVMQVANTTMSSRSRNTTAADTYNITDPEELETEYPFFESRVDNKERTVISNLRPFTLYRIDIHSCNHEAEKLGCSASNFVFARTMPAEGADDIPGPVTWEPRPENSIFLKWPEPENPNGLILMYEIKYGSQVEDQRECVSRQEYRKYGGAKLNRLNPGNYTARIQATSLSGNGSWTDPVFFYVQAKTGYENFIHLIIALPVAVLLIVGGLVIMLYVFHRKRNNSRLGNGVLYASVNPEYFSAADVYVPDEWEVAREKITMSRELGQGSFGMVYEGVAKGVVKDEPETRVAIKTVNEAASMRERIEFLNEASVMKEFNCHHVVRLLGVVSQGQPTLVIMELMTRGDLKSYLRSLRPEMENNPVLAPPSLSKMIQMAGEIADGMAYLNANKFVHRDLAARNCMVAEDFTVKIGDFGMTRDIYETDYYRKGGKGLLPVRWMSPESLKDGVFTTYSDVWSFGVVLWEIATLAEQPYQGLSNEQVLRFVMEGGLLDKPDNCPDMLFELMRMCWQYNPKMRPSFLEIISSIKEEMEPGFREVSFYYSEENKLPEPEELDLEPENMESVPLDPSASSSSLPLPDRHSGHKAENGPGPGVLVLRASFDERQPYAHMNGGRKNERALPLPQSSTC
MEASUREMENT_NAME: IC50

input: Suppose we examine the compound CC1=C(CC(=O)/C=C/c2cccc(CO)c2)C(=O)C=C2C1=CC=C1[C@@]2(C)CC[C@@]2(C)C3C[C@](C)(C(=O)CCc4nc(C(O)C(O)O)c(C)nc4C)CC[C@]3(C)CC[C@]12C (stereo partly shown) ; what IC50 value has been reported?
output: > 30 µM

---

biological target: UniProt:P06241
Sequence (P06241 whole entry): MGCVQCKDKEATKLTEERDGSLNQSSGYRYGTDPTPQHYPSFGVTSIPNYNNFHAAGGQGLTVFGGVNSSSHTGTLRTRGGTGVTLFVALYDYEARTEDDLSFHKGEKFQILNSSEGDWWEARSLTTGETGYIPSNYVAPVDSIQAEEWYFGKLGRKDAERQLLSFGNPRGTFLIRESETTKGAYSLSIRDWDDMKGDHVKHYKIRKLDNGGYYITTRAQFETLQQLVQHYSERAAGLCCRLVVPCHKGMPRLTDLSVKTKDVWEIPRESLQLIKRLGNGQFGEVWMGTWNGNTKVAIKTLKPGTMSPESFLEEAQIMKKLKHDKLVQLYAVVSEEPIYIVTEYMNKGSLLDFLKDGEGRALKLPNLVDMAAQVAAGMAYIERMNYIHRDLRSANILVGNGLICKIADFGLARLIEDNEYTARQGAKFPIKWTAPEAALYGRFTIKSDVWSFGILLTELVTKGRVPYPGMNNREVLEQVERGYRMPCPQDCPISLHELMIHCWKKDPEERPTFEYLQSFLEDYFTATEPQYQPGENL
MEASUREMENT_NAME: IC50

input: Which IC50 value belongs to CC1=C(CC(=O)/C=C/c2cccc(CO)c2)C(=O)C=C2C1=CC=C1[C@@]2(C)CC[C@@]2(C)C3C[C@](C)(C(=O)CCc4nc(C(O)C(O)O)c(C)nc4C)CC[C@]3(C)CC[C@]12C (stereo partly shown) ?
output: > 30 µM

---

target: CSK (Homo sapiens)
Sequence (P41240 whole entry): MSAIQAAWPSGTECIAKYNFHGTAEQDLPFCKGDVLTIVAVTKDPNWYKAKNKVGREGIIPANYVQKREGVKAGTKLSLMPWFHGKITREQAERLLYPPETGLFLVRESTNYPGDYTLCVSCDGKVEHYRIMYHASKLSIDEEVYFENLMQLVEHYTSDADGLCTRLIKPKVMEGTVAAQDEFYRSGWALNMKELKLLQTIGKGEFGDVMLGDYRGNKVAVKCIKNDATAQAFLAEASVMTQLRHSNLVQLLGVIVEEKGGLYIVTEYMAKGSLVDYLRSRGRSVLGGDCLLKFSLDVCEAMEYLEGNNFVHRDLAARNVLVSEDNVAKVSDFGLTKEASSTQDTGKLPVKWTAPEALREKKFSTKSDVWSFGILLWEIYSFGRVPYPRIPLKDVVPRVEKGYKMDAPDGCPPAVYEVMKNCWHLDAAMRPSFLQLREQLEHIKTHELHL
MEASUREMENT_NAME: IC50

input: Which IC50 is reported for this compound? CC1=C(CC(=O)/C=C/c2cccc(CO)c2)C(=O)C=C2C1=CC=C1[C@@]2(C)CC[C@@]2(C)C3C[C@](C)(C(=O)CCc4nc(C(O)C(O)O)c(C)nc4C)CC[C@]3(C)CC[C@]12C (stereo partly shown) [CP1]
output: > 30 µM

---

Target: PRDX3 (Homo sapiens, UniProt P30048)
Sequence (P30048 62-256): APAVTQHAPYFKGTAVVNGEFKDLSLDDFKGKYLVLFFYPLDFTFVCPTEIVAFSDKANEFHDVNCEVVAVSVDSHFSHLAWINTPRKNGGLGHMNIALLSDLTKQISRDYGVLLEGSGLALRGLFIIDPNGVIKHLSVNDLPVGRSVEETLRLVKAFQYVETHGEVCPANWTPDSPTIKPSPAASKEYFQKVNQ
pIC50: −log10 of the molar value.
MEASUREMENT_NAME: pIC50

input: For the molecule shown here, CC1=C(CC(=O)/C=C/c2cccc(CO)c2)C(=O)C=C2C1=CC=C1[C@@]2(C)CC[C@@]2(C)C3C[C@](C)(C(=O)CCc4nc(C(O)C(O)O)c(C)nc4C)CC[C@]3(C)CC[C@]12C (stereo partly shown) [CP1] , give the reported pIC50.
output: < 4.52

---

target: FGFR2 (Homo sapiens, UniProt P21802)
MEASUREMENT_NAME: IC50

input: Name the reported IC50 value associated with the molecule CC1=C(CC(=O)/C=C/c2cccc(CO)c2)C(=O)C=C2C1=CC=C1[C@@]2(C)CC[C@@]2(C)C3C[C@](C)(C(=O)CCc4nc(C(O)C(O)O)c(C)nc4C)CC[C@]3(C)CC[C@]12C (stereo partly shown) [CP1]
output: > 30 µM

---

target: TEK (Homo sapiens, UniProt Q02763)
Sequence (Q02763 23-1124): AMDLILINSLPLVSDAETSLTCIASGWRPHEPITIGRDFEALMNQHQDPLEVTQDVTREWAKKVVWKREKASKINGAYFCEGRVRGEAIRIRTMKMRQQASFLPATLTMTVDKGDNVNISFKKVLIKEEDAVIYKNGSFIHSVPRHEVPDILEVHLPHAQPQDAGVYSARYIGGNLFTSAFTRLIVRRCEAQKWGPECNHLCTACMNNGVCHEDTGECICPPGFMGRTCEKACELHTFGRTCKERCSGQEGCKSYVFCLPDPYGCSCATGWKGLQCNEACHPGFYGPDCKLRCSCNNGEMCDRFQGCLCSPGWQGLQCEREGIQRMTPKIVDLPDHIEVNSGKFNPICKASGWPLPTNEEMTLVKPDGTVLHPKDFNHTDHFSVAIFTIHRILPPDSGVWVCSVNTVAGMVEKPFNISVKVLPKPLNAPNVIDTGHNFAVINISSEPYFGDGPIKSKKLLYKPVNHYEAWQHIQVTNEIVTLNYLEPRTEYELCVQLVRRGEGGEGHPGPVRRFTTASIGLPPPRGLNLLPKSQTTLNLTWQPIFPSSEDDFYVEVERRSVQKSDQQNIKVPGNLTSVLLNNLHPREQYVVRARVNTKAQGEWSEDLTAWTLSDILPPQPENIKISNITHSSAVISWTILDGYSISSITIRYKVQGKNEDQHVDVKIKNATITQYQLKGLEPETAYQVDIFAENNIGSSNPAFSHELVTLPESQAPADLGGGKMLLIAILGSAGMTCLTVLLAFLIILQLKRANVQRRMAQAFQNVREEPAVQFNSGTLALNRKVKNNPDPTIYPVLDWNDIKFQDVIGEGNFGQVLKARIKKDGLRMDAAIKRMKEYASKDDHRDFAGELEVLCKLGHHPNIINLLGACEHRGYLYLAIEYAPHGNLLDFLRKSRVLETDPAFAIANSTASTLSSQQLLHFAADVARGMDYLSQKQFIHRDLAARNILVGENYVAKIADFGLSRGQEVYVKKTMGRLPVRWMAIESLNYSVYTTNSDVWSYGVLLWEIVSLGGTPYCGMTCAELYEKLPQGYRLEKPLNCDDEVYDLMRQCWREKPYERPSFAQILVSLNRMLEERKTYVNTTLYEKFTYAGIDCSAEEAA
pIC50: −log10 of the molar value.
MEASUREMENT_NAME: pIC50

input: Quick one: pIC50 of CC1=C(CC(=O)/C=C/c2cccc(CO)c2)C(=O)C=C2C1=CC=C1[C@@]2(C)CC[C@@]2(C)C3C[C@](C)(C(=O)CCc4nc(C(O)C(O)O)c(C)nc4C)CC[C@]3(C)CC[C@]12C (stereo partly shown) ?
output: < 4.52

---

biological target: NTRK3 (Homo sapiens, UniProt Q16288)
MEASUREMENT_NAME: IC50

input: State the recorded IC50 for this entry: CC1=C(CC(=O)/C=C/c2cccc(CO)c2)C(=O)C=C2C1=CC=C1[C@@]2(C)CC[C@@]2(C)C3C[C@](C)(C(=O)CCc4nc(C(O)C(O)O)c(C)nc4C)CC[C@]3(C)CC[C@]12C (stereo partly shown) [CP1]
output: > 30 µM

---

Target: PRDX1 (Homo sapiens, UniProt Q06830)
Sequence (Q06830 1-199): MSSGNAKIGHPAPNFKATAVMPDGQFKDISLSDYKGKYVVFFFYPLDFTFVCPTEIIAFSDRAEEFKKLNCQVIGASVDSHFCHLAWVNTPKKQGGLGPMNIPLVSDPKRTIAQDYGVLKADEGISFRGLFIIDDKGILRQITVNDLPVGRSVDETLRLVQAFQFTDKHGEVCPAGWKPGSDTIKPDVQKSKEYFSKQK
Experiment: MST assay
Assay type: binding
Conditions: MST; mean ± SD, n = 3; read-out: PRDX1 (Kd)
MEASUREMENT_NAME: pKd
Scale for pKd: -log10 of concentration given in mol/L; no unit attached.

input: # pKd lookup, item CC1=C(CC(=O)/C=C/c2cccc(CO)c2)C(=O)C=C2C1=CC=C1[C@@]2(C)CC[C@@]2(C)C3C[C@](C)(C(=O)CCc4nc(C(O)C(O)O)c(C)nc4C)CC[C@]3(C)CC[C@]12C (stereo partly shown)
output: 10.22

---

target: ERBB4 (Homo sapiens, UniProt Q15303); test: Kinase selectivity assay; type: biochemical; conditions: target ERBB4; read-out: CP1 IC50
Sequence (Q15303 26-1308): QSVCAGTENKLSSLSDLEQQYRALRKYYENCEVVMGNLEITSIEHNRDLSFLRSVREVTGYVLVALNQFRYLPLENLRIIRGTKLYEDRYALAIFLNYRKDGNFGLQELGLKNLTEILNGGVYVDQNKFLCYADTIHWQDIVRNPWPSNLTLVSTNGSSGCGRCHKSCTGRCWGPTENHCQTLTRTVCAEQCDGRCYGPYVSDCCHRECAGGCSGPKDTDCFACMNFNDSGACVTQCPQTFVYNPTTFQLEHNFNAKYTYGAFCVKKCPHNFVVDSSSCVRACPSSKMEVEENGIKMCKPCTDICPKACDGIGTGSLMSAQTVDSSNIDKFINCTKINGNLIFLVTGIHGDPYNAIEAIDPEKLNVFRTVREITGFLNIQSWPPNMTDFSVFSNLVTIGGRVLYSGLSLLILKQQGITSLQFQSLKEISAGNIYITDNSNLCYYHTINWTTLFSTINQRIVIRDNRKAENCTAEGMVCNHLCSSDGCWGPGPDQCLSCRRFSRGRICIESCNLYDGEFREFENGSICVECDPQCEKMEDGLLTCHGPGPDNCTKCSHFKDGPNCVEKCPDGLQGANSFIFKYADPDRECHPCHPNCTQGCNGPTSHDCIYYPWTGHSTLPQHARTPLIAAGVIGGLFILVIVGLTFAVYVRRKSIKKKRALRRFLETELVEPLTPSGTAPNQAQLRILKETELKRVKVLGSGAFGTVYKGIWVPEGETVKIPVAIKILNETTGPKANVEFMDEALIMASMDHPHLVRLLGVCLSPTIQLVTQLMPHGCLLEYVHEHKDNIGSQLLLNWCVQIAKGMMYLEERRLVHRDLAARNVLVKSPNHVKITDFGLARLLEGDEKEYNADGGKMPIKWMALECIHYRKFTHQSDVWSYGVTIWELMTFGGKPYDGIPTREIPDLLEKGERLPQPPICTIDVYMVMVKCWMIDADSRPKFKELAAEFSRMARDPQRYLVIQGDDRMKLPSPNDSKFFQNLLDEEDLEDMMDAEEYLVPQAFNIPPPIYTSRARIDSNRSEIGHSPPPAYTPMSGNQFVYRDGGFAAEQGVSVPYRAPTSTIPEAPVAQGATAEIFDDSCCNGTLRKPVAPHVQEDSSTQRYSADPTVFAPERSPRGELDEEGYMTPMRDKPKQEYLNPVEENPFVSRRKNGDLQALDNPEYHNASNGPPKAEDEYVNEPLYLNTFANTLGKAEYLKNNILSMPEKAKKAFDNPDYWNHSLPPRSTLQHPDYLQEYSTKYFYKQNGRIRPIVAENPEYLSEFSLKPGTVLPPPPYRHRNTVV
pIC50: −log10 of the molar value.
MEASUREMENT_NAME: pIC50

input: Requested field: pIC50. Item: CC1=C(CC(=O)/C=C/c2cccc(CO)c2)C(=O)C=C2C1=CC=C1[C@@]2(C)CC[C@@]2(C)C3C[C@](C)(C(=O)CCc4nc(C(O)C(O)O)c(C)nc4C)CC[C@]3(C)CC[C@]12C (stereo partly shown)
output: < 4.52
